testTarget: Histone acetyltransferase KAT2B (Homo sapiens)
measurementProtocol: Inhibition of recombinant human PCAF catalytic domain (492 to 658 aa) using histone H3 at 100 uM after 1 hr by radiochemical assay in presence of [acetyl-3H]-acetyl coenzyme A
observedProperty: inhibition (%)

Observe how each entry below is paired with its result.
{"compound": "CCOC(=O)c1csc(NN=C(C)C)n1", "unitAbbreviation": "%", "inhibition": 0}
{"compound": "Nc1nc(-c2ccc(Cl)cc2)cs1", "unitAbbreviation": "%", "inhibition": 0}
{"compound": "CC1CCC/C1=N/Nc1nc(-c2ccc(Cl)cc2)cs1 (stereo not drawn)", "unitAbbreviation": "%", "inhibition": 2}
{"compound": "C/C(=N/Nc1nc(-c2ccc(Cl)cc2)cs1)c1ccccn1", "unitAbbreviation": "%", "inhibition": 10}

(a) CC(C)=NN=C1NC(=O)CS1
(b) Cc1csc(NN=C2CCCC2)n1
Q) Pick the one with the larger inhibition: a vs b Lab note: record the label of whichever item you select.
A) b

(A) CC(C)=NNc1nc(-c2ccccc2)c(C)s1
(B) CC(C)=NNc1nc(-c2ccc(F)cc2)cs1
Q) Pick the one with the larger inhibition: A vs B Lab note: record the label of whichever item you select.
A) A

* * *

testTarget: Histone acetyltransferase p300 (Homo sapiens) (UniProt Q09472)
Sequence (Q09472 whole entry, the tested form may be a part): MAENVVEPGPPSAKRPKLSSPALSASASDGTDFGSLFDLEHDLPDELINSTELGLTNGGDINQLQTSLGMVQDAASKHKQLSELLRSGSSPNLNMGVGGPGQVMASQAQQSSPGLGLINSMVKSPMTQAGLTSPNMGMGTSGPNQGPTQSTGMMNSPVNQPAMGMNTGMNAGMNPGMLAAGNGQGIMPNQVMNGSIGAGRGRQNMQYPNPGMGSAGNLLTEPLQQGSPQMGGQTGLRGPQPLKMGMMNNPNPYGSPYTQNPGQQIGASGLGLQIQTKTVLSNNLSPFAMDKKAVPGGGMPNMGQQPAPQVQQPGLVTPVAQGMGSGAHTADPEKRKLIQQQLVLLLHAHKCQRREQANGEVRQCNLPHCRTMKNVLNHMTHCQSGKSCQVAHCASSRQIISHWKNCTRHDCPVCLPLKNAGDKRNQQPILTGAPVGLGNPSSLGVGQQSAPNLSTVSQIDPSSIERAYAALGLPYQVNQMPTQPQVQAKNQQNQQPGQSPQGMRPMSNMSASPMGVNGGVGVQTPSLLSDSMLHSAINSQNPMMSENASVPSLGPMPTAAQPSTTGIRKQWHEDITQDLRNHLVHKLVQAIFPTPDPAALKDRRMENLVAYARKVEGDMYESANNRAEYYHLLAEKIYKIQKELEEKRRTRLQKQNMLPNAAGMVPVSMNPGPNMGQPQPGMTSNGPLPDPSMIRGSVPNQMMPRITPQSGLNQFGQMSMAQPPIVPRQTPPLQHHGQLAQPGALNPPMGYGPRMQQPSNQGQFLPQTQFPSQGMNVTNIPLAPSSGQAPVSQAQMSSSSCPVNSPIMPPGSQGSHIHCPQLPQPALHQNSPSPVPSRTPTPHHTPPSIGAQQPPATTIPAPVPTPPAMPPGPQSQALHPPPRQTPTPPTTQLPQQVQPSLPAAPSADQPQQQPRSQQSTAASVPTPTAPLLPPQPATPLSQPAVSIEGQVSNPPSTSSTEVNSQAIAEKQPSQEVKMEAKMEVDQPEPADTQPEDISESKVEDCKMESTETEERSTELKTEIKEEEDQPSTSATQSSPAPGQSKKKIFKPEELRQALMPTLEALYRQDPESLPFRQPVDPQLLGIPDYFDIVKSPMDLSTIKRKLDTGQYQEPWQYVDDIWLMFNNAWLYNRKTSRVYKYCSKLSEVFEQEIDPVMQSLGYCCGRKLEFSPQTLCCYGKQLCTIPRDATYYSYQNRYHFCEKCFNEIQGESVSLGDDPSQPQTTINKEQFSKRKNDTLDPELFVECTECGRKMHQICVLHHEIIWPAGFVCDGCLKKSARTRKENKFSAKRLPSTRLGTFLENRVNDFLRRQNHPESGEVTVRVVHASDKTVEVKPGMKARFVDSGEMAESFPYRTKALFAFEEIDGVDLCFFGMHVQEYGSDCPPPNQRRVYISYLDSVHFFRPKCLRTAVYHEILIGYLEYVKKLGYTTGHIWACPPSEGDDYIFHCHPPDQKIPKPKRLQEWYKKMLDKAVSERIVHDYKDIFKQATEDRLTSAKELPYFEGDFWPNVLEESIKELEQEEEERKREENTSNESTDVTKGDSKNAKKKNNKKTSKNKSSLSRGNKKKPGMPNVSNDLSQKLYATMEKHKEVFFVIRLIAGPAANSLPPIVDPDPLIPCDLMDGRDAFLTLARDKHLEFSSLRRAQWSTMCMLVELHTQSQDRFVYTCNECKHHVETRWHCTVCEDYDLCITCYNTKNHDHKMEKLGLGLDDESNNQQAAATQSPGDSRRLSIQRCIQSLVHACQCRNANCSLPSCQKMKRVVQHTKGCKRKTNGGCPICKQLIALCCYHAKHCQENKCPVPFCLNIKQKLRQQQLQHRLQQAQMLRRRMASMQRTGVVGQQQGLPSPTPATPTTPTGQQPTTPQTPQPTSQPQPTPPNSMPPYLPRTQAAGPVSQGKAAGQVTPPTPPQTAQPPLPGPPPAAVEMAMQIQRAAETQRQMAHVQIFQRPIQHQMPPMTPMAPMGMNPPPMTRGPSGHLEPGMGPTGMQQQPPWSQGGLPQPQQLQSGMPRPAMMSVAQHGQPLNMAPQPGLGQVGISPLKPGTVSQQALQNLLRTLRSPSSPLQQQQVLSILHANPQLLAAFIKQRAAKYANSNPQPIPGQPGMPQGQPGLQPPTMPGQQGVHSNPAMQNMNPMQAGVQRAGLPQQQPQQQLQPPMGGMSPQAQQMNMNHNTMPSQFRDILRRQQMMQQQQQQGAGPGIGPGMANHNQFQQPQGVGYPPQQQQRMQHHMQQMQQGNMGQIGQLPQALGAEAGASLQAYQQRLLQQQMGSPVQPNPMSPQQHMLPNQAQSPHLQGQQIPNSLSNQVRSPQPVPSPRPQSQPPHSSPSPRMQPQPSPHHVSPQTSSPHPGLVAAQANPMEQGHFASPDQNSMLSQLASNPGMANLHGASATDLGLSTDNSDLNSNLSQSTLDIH
measurementProtocol: Inhibition of recombinant human p300 catalytic domain (1284 to 1673 aa) using histone H3 at 100 uM after 1 hr by radiochemical assay in presence of [acetyl-3H]-acetyl coenzyme A
observedProperty: inhibition (%)

{"compound": "COc1ccc(-c2csc(NN=C(C)C)n2)cc1", "inhibition [%]": 21}
{"compound": "CC1CC/C(=N/Nc2nc(-c3cc4ccccc4oc3=O)cs2)C1 (configuration not stated)", "inhibition [%]": 41}
{"compound": "COc1ccc(-c2csc(N/N=C3/CCC(C)C3)n2)cc1 (configuration not stated)", "inhibition [%]": 28}
{"compound": "CC1CC/C(=N/Nc2nc(-c3cccc([N+](=O)[O-])c3)cc(=O)[nH]2)C1 (configuration not stated)", "inhibition [%]": 14}

(a) CCC/C(C)=N/Nc1nc(-c2ccc(Cl)cc2)cs1
(b) CC(C)=NNc1nc(-c2ccc(Cl)cc2)cc(=O)[nH]1
(c) C/C(=N/Nc1nc(-c2ccc(Cl)cc2)cs1)c1cccnc1
Q) Sort the compounds on inhibition; start with the lowest figure. Returns: the labels arranged in the requested order.
A) c, b, a
(c: 1%, b: 7%, a: 19%)

(A) CC(C)=NNc1nc(-c2ccc(-c3ccccc3)cc2)cs1
(B) CC(C)=NNc1nc(-c2cccc([N+](=O)[O-])c2)cs1
Q) For the pair A and B , which entry has the numerically smaller recorded inhibition? Lab note: record the label of whichever item you select.
A) A

(a) C/C(=N/Nc1nc(-c2ccc(Cl)cc2)cs1)c1ccc2ccccc2c1
(b) CC1CC/C(=N/Nc2nc(-c3ccc(Cl)cc3)cs2)C1 (configuration not stated)
Q) For the pair a and b , which entry has the numerically smaller recorded inhibition? Lab note: record the label of whichever item you select.
A) a
(a: 16%, b: 27%)

* * *

testTarget: Histone acetyltransferase p300 (Homo sapiens) (UniProt Q09472)
measurementProtocol: Inhibition of recombinant human p300 catalytic domain (1284 to 1673 aa) using histone H3 at 400 uM after 1 hr by radiochemical assay in presence of [acetyl-3H]-acetyl coenzyme A
observedProperty: inhibition (%)

{"molecule": "Clc1ccc(-c2csc(NN=C3CCCC3)n2)cc1", "obsValue": 61}
{"molecule": "CC1CC/C(=N/Nc2nc(-c3cc4ccccc4oc3=O)cs2)C1 (centres undefined)", "obsValue": 69}
{"molecule": "CC(C)=NNc1nc(-c2ccc(Cl)cc2)cs1", "obsValue": 60}
{"molecule": "O=[N+]([O-])c1cccc(-c2csc(NN=C3CCCC3)n2)c1", "obsValue": 60}
